- Protocol Text: in vivo
- Setup Conditions: mouse, ip, NMRI mice, single i.p. administration, mortality within 7 days, read-out: Acute toxicity LD50
Parameter: LD50 at 168 h. Scope: all listed entries.
Property Name: LD50 at 168 h

# Compound, Result
rows = [
    ("CC(C)(C)c1cc(-c2csc3nc(=O)cnn23)cc(C(C)(C)C)c1O", "> 1200 mg/kg"),
    ("CC(C)(C)c1cc(-c2csc3nc(=O)c(CO)nn23)cc(C(C)(C)C)c1O", "> 1200 mg/kg"),
    ("Cc1cc(-c2csc3nc(=O)cnn23)cc(C(C)(C)C)c1O", "> 1200 mg/kg"),
]

====

- Protocol Text: in vivo
- Setup Conditions: mouse, ip, read-out: Acute toxicity LD50

# Molecule, LD50 at 168 h
data = [
    ("Cc1nn2c(-c3cc(C(C)(C)C)c(O)c(C(C)(C)C)c3)csc2nc1=O [Example 6]", "> 1200 mg/kg"),
    ("CCCc1nn2c(-c3cc(C(C)(C)C)c(O)c(C(C)(C)C)c3)csc2nc1=O [Example 9]", "> 1200 mg/kg"),
]

====

- System: microsomal lipid peroxidation
- Protocol Text: In-vitro inhibition of lipid peroxidation, microsomes (thiobarbituric acid test)
- Format: biochemical
- Setup Conditions: microsomes from the rat liver
pIC50: −log10 of the molar value.
Property Name: pIC50

# Compound, Property Name, Quantitative Result
data = [
    ("CC(C)(C)c1cc(-c2csc3nc(=O)cnn23)cc(C(C)(C)C)c1O", "pIC50", 6.22),
]
